Target: dopamine transporter (DAT) (Homo sapiens)
Experiment: Dopamine reuptake inhibition, [3H]-DA, HEK-293 cells transfected with dopamine transporter cDNA
readoutName: IC50 (nM)

Use these answered entries as a reference point.
| chemicalString | targetUnderTest | readoutName | unitText | readoutValue |
| --- | --- | --- | --- | --- |
| Fc1ccc2[nH]c(-c3nnc(CN4CCC(Cc5ccccc5)CC4)[nH]3)cc2c1 | dopamine transporter (DAT) (Homo sapiens) | IC50 | nM | 83 |
| c1ccc(CC2CCN(Cc3nnc(-c4c[nH]c5ccccc45)[nH]3)CC2)cc1 | dopamine transporter (DAT) (Homo sapiens) | IC50 | nM | 187 |
| Fc1ccc2cc(-c3nnc(CN4CCC(Cc5ccccc5)CC4)[nH]3)[nH]c2c1 | dopamine transporter (DAT) (Homo sapiens) | IC50 | nM | 48 |

[a] Nc1ccc2[nH]cc(-c3nnc(CN4CCC(Cc5ccccc5)CC4)[nH]3)c2c1
[b] COc1cccc2cc(-c3nnc(CN4CCC(Cc5ccccc5)CC4)[nH]3)[nH]c12
Ask: Endpoint returns whichever of a and b has the numerically higher IC50. To answer, give the label that identifies your chosen option.
Result: a

[I] Clc1cccc2c(-c3nnc(CN4CCC(Cc5ccccc5)CC4)[nH]3)c[nH]c12
[II] COc1ccc(-c2nnc(CN3CCC(Cc4ccccc4)CC3)[nH]2)cc1OC
Ask: Endpoint returns whichever of I and II has the numerically higher IC50. To answer, give the label that identifies your chosen option.
Result: I

====

Target: dopamine transporter (DAT) (Homo sapiens, UniProt Q01959)
Sequence (Q01959 whole entry, species assumed): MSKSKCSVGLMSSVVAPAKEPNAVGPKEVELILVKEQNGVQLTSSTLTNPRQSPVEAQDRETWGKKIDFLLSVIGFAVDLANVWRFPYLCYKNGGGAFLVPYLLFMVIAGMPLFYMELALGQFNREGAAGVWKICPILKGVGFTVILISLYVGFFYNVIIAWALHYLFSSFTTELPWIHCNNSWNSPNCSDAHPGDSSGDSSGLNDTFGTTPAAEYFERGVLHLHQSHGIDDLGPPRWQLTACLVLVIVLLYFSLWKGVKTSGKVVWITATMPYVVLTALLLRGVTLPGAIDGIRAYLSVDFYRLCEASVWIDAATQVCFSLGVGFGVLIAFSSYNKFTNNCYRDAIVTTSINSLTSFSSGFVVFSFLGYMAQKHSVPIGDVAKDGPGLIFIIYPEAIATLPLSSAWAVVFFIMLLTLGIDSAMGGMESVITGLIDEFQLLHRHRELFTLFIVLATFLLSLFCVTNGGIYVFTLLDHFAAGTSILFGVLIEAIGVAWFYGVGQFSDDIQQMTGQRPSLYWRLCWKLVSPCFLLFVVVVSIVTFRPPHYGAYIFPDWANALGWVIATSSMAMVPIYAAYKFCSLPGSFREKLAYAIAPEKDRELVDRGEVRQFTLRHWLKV
Assay: Dopamine reuptake inhibition, [3H]-DA, HEK-293 cells transfected with dopamine transporter cDNA
Settings: compound 1 μM; relative to control without compound (100%); lower value = stronger inhibition
readoutName: Triple reuptake inhibition (Ratio %) DAT

| chemicalString | Triple reuptake inhibition (Ratio %) DAT |
| --- | --- |
| Clc1ccc2[nH]c(-c3nnc(CN4CCC(Cc5ccccc5)CC4)[nH]3)cc2c1 | 7.44 |

[A] Clc1cccc2[nH]c(-c3nnc(CN4CCC(Cc5ccccc5)CC4)[nH]3)cc12
[B] c1ccc(CC2CCN(Cc3nnc(-c4cc5ccccc5[nH]4)[nH]3)CC2)cc1
Ask: Endpoint returns whichever of A and B has the numerically higher Triple reuptake inhibition (Ratio %) DAT. To answer, give the label that identifies your chosen option.
Result: B

====

Target: norepinephrine transporter (NET) (Homo sapiens)
Sequence (P23975 whole entry, species assumed): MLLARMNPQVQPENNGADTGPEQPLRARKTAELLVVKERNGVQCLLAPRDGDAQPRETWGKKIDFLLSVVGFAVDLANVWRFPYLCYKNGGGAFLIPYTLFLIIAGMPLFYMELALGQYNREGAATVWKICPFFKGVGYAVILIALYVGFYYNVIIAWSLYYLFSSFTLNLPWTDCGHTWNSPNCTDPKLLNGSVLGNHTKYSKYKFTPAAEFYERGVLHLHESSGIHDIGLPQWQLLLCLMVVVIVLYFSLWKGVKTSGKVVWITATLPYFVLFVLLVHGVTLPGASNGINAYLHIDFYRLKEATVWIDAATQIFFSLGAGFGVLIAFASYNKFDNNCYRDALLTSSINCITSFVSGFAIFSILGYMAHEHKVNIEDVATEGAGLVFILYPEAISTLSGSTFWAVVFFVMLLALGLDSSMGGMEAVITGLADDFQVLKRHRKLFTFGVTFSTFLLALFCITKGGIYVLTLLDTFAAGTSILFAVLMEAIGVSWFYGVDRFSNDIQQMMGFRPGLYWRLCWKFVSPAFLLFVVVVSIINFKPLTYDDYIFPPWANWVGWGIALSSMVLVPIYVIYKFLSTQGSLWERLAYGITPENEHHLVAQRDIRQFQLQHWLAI
Experiment: Norepinephrine reuptake inhibition, [3H]-NE, cells transfected with NE transporter cDNA
readoutName: IC50 (nM)

Use these answered entries as a reference point.
| compound | targetUnderTest | IC50 / nM |
| --- | --- | --- |
| COc1ccc2[nH]c(-c3nnc(CN4CCC(Cc5ccccc5)CC4)[nH]3)cc2c1 [Example 13] | norepinephrine transporter (NET) (Homo sapiens) | 70 |
| Nc1ccc2[nH]cc(-c3nnc(CN4CCC(Cc5ccccc5)CC4)[nH]3)c2c1 [Example 43] | norepinephrine transporter (NET) (Homo sapiens) | 4040 |
| c1ccc(CC2CCN(Cc3nnc(-c4cc5ccccc5[nH]4)[nH]3)CC2)cc1 [Example 1] | norepinephrine transporter (NET) (Homo sapiens) | 343 |
| COc1cccc2c(-c3nnc(CN4CCC(Cc5ccccc5)CC4)[nH]3)c[nH]c12 [Example 37] | norepinephrine transporter (NET) (Homo sapiens) | 1570 |
| N#Cc1ccc(-c2nnc(CN3CCC(Cc4ccccc4)CC3)[nH]2)cc1 [Example 46] | norepinephrine transporter (NET) (Homo sapiens) | 816 |

[A] COc1cccc2cc(-c3nnc(CN4CCC(Cc5ccccc5)CC4)[nH]3)[nH]c12 [Example 19]
[B] COC(=O)c1ccc2[nH]c(-c3nnc(CN4CCC(Cc5ccccc5)CC4)[nH]3)cc2c1 [Example 20]
Ask: Please indicate which has the smaller reported IC50: A , or B . To answer, give the label that identifies your chosen option.
Result: A

[A] Oc1cc2cc(-c3nnc(CN4CCC(Cc5ccccc5)CC4)[nH]3)[nH]c2cc1O [Example 35]
[B] Fc1ccc(-c2nnc(CN3CCC(Cc4ccccc4)CC3)[nH]2)cc1 [Example 47]
Ask: Endpoint returns whichever of A and B has the numerically higher IC50. To answer, give the label that identifies your chosen option.
Result: B

====

Target: dopamine transporter (DAT) (Homo sapiens)
Assay: Dopamine reuptake inhibition, [3H]-DA, HEK-293 cells transfected with dopamine transporter cDNA
pIC50: −log10 of the molar value.
readoutName: pIC50

Use these answered entries as a reference point.
| chemicalString | pIC50 |
| --- | --- |
| COC(=O)c1cccc2c(-c3nnc(CN4CCC(Cc5ccccc5)CC4)[nH]3)c[nH]c12 | 6.34 |
| Cc1ccc2[nH]c(-c3nnc(CN4CCC(Cc5ccccc5)CC4)[nH]3)cc2c1 | 6.76 |

[I] NC(=O)c1ccc2[nH]c(-c3nnc(CN4CCC(Cc5ccccc5)CC4)[nH]3)cc2c1
[II] N#Cc1ccc2[nH]c(-c3nnc(CN4CCC(Cc5ccccc5)CC4)[nH]3)cc2c1
Ask: Please indicate which has the smaller reported pIC50: I , or II . To answer, give the label that identifies your chosen option.
Result: I
(I: 6.68, II: 7.08)

====

Target: serotonin transporter (SERT) (Homo sapiens, UniProt P31645)
Sequence (P31645 whole entry, species assumed): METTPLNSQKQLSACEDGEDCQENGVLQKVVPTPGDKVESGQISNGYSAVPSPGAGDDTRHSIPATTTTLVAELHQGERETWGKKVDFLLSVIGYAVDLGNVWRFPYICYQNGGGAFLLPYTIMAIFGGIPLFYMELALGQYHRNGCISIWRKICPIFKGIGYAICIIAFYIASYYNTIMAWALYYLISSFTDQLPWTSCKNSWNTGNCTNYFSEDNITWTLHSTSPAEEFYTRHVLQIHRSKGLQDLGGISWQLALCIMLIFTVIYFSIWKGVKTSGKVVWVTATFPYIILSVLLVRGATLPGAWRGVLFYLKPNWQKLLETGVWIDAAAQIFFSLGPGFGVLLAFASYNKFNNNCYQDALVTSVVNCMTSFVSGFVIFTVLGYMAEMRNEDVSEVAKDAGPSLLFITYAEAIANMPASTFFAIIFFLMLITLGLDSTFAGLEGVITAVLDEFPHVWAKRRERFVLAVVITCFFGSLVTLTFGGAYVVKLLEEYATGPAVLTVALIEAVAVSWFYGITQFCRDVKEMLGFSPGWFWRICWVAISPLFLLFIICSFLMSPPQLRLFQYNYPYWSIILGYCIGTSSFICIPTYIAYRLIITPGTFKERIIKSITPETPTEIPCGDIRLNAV
Assay: Serotonin reuptake inhibition, [3H]-5-HT, cells transfected with 5-HT transporter cDNA
Details: compound 1 μM; relative to control without compound (100%); lower value = stronger inhibition
readoutName: Triple reuptake inhibition (Ratio %) SERT

[A] FC(F)(F)c1ccc2[nH]c(-c3nnc(CN4CCC(Cc5ccccc5)CC4)[nH]3)cc2c1
[B] COc1cccc2cc(-c3nnc(CN4CCC(Cc5ccccc5)CC4)[nH]3)[nH]c12
[C] CC(=O)Nc1ccc(-c2nnc(CN3CCC(Cc4ccccc4)CC3)[nH]2)cc1
Ask: sort_by: Triple reuptake inhibition (Ratio %) SERT; order: ascending; scope: items listed above Kindly provide the labels arranged according to the requested ordering.
Result: C, B, A

[a] O=C(O)c1ccc2[nH]c(-c3nnc(CN4CCC(Cc5ccccc5)CC4)[nH]3)cc2c1
[b] COC(=O)c1ccc(-c2nnc(CN3CCC(Cc4ccccc4)CC3)[nH]2)cc1N
Ask: Endpoint returns whichever of a and b has the numerically higher Triple reuptake inhibition (Ratio %) SERT. To answer, give the label that identifies your chosen option.
Result: a

====

Biological target: norepinephrine transporter (NET) (Homo sapiens)
Assay: Norepinephrine reuptake inhibition, [3H]-NE, cells transfected with NE transporter cDNA
Conditions: compound 1 μM; relative to control without compound (100%); lower value = stronger inhibition
readoutName: Triple reuptake inhibition (Ratio %) NET

Use these answered entries as a reference point.
| molecule | unitText | readoutValue |
| --- | --- | --- |
| COc1ccc2[nH]cc(-c3nnc(CN4CCC(Cc5ccc(Cl)c(Cl)c5)CC4)[nH]3)c2c1 [Example 44] | % | 92.59 |
| COc1ccc2[nH]c(-c3nnc(CN4CCC(Cc5ccccc5)CC4)[nH]3)cc2c1 [Example 13] | % | 4.78 |
| COc1ccc2[nH]cc(-c3nnc(CN4CCC(Cc5ccccc5)CC4)[nH]3)c2c1 [Example 36] | % | 85.40 |
| Clc1ccc(CC2CCN(Cc3nnc(-c4cc5ccccc5[nH]4)o3)CC2)cc1Cl [Example 34] | % | 124.25 |
| c1ccc(CC2CCN(Cc3nnc(-c4ccc5c(c4)OCO5)[nH]3)CC2)cc1 [Example 27] | % | 53.55 |
| c1ccc(CC2CCN(Cc3nnc(-c4ccccc4)[nH]3)CC2)cc1 [Example 9] | % | 73.45 |
| COC(=O)c1ccc2[nH]c(-c3nnc(CN4CCC(Cc5ccccc5)CC4)[nH]3)cc2c1 [Example 20] | % | 38.22 |
| c1ccc(C2CCN(Cc3nnc(-c4cc5ccccc5[nH]4)[nH]3)CC2)cc1 [Example 3] | % | 124.39 |

[I] Nc1ccc2[nH]cc(-c3nnc(CN4CCC(Cc5ccccc5)CC4)[nH]3)c2c1 [Example 43]
[II] N#Cc1ccc2[nH]c(-c3nnc(CN4CCC(Cc5ccccc5)CC4)[nH]3)cc2c1 [Example 17]
[III] FC(F)(F)Oc1ccc(-c2nnc(CN3CCC(Cc4ccc(Cl)c(Cl)c4)CC3)[nH]2)cc1 [Example 61]
[IV] COc1cc2cc(-c3nnc(CN4CCC(Cc5ccccc5)CC4)[nH]3)[nH]c2cc1OC [Example 12]
[V] c1ccc(CC2CCN(Cc3nnc(-c4cc5ccccc5[nH]4)[nH]3)CC2)cc1 [Example 1]
Ask: Hello, I need these entries ordered by Triple reuptake inhibition (Ratio %) NET, highest reading first. Thanks! Kindly provide the labels arranged according to the requested ordering.
Result: I, III, V, II, IV

[1] Cc1ccc2c(-c3nnc(CN4CCC(Cc5ccccc5)CC4)[nH]3)c[nH]c2c1 [Example 38]
[2] COC(=O)c1cccc2c(-c3nnc(CN4CCC(Cc5ccc(Cl)c(Cl)c5)CC4)[nH]3)c[nH]c12 [Example 60]
Ask: Please indicate which has the smaller reported Triple reuptake inhibition (Ratio %) NET: 1 , or 2 . To answer, give the label that identifies your chosen option.
Result: 1
(1: 64.82%, 2: 95.63%)
